Recorded values, source PubChem BioAssay AID2094.

Assay: modulation of AI-2 quorum-sensing luminescence – JMH597 strain, luminescence/OD600 ratio, primary screen (AID 2094);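 also: luminescence divided by OD600 gain over 9 h not by final OD600 alone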
Details: Vibrio harveyi JMH597 AI-2 luminescence/OD600 ratio, 9 h; at 7.5 µM; active compounds read low; 0 = neutral-control median; strain lacks LuxN and CqsS sensors
Out of some 300,000 compounds screened, about 1,200 (0.4%) were called active. What follows is part of a selection rich in actives, with near analogues and random picks from the rest.
observation.type: activity change

These recorded examples may help you get a feel for the data.
INSERT INTO measurements (molecule, observation_type, reported_result) VALUES
  ('COC(=O)CSc1snnc1-c1ccc(Cl)c(Cl)c1', 'activity change', '9.65% (inactive)'),
  ('O=C(CCC(=O)c1cccs1)NC1CCCCCC1', 'activity change', '-7.35% (inactive)'),
  ('Cc1cc(C)nc(S/C=C/C(=O)c2ccccc2)n1', 'activity change', '4.08% (inactive)');

Please give activity change for each item listed below.
1. Cc1ccc(C2CC2C(=O)NN)cc1 (configuration not stated)
2. O=C(NNC(=S)Nc1ccc(F)cc1)[C@H]1C[C@@H]1c1ccccc1
3. C/C(=N\NC(=O)c1ccc(C)cc1)C1C(=O)c2ccccc2C1=O
4. O=C(Cc1cccs1)Nc1ccc([N+](=O)[O-])cc1

1: 19.8% (inactive); 2: -11.8% (inactive); 3: 17% (inactive); 4: 10.5% (inactive)

Give one value of activity change per listed molecule.
1. COc1ccccc1C(=O)N1C(CC(=O)Nc2ccccc2C)C(=O)NC2CCCCC21 (configuration not stated)
2. Cc1ccc(NC(=O)C2CC2c2ccccc2)cc1 (configuration not stated)
3. O=C(COc1cccc2c1CCNC2=O)NC1CCCCC1
4. CC(OC(=O)CNS(=O)(=O)/C=C/c1ccccc1)C(=O)Nc1ccc(S(=O)(=O)N2CCCC2)cc1 (configuration not stated)
5. COc1ccc(CCC(=O)c2ccc(OC)cc2)cc1

1: 6.5% (inactive); 2: -86.2% (active); 3: 2.05% (inactive); 4: 11.2% (inactive); 5: -82.8% (active)

###

For each record, write down the corresponding activity change.
Test: modulation of AI-2 quorum-sensing luminescence – JMH597 strain, luminescence/OD600 ratio, primary screen (AID 2094);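 also: luminescence divided by OD600 gain over 9 h not by final OD600 alone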
Details: Vibrio harveyi JMH597 AI-2 luminescence/OD600 ratio, 9 h; at 7.5 µM; active compounds read low; 0 = neutral-control median; strain lacks LuxN and CqsS sensors
In all, about 300,000 compounds went through this assay and about 1,200 (0.4%) were called active. What follows is part of a selection rich in actives, with near analogues and random picks from the rest.
One number for each entry, in %.

# count of solved cases: 6
INSERT INTO measurements (compound, unit_abbrev, reported_result) VALUES
  ('Cc1csc(OCC(=O)Nc2ccc(C)c(C)c2)n1', '%', 15.5),
  ('CCCNC(=O)c1ccc(N2CCC3(CC2)CC(c2cccc(Br)c2)=NO3)c(NC(=O)c2ccco2)c1', '%', 20.3),
  ('C/C=C/C(=O)OCc1csc(CC(=O)Nc2ccccc2C)n1', '%', 48.5),
  ('COc1cc(C(=S)NCc2ccccc2)cc(Br)c1O', '%', -79.9),
  ('Cc1cccc(-c2noc(-c3ccc(F)cc3)n2)c1', '%', 2.4),
  ('Cc1cc(C)c(C(N)=O)c(Cl)n1', '%', -0.00035);

Report activity change for every entry below.
1. CCC(C)N(C(=O)COC(=O)C1C(C(=O)OC)=C(C)NC(C)=C1C(=O)OC)C1CCS(=O)(=O)C1 (stereo not given)
2. COc1ccc2ccccc2c1/C=N/NC(=O)c1cc(C)[nH]n1
3. Cc1ccc(N2CCN(S(=O)(=O)N(C)C)CC2)cc1Cl
4. O=C(/C=C/c1ccc2c(c1)OCO2)NCc1cn2cc(Cl)ccc2n1
5. CN(C)S(=O)(=O)c1ccc(N/C=C(\[N+](=O)[O-])S(=O)(=O)c2ccccc2)cc1
6. O=C1CCCc2nn(-c3ccccc3)nc21
7. Cc1cc(-c2ccccc2)nc(N2CCC(C(=O)NC34CC5CC(CC(C5)C3)C4)CC2)n1
8. OC(CN=c1sc2ccccc2n1CC(O)COc1ccccc1)COc1ccccc1 (stereo not given)

1: 18.1; 2: 11.2; 3: 10.7; 4: 2.46; 5: 28.7; 6: 8.67; 7: 31.5; 8: 4.84

List the reported activity change of each compound below.
1. COc1ccc(Cc2nnc(N/N=C/c3ccccc3O)[nH]c2=O)cc1OC
2. CC1(C)C/C(=N/Nc2ccc([N+](=O)[O-])cc2[N+](=O)[O-])C(C)(C)O1
3. Cc1ccc(CCCOC(=O)C[N+]2(C)CCCCC2)cc1
4. COc1cccc(NC(=O)COc2cc(C)cc3oc(=O)cc(C)c23)c1

-86.4
18.5
20.1
15.1
